Test system: Target C
Assay Name: RT-qPCR canonical junction panel assay, Target C mRNA
Type: cell-based
Details: Table 4, read-out: Target C IC50 (decrease in CJ mRNA levels)
Quantity Kind: IC50

- Cc1nc2cc(-c3ccc4nc(N5CCC(NC(C)(C)C)C5)ccc4n3)c(O)cc2n1C (stereo not shown): 100 to 1000 nM
- Cc1nc2cc(O)c(-c3ccc4nc(N5CCN6CCCC6C5)ccc4n3)cc2o1 (stereo not shown): 100 to 1000 nM
- CNC1CCN(c2ccc3nc(-c4cc(F)c5nc(C)cn5c4)ncc3n2)C1 (stereo not shown): 100 to 1000 nM
- Cc1nc2cc(O)c(-c3ccc4nc(N5C[C@@H](C)N[C@@H](C)C5)ccc4n3)cc2o1: 1000 to 10000 nM

###

System: MYB mRNA
Assay Name: RT-qPCR splicing assay, MYB mRNA canonical (CJ) and alternative (AJ) junction
Format: cell-based, human
Details: Homo sapiens, MYB canonical junction mRNA, RT-qPCR; read-out: MYB CJ (decrease in CJ mRNA levels, IC50)
Here the recorded IC50 is given for each entry.
Quantity Kind: IC50

* Cn1cc2cc(-c3ccc4nc(N5CCC(NC6(C)CC6)C5)ccc4n3)c(O)cc2n1 (centres unmarked) | < 100 nM
* Cc1c(O)c(-c2ccc3nc(C4CCNCC4)ccc3n2)cc2cn(C)nc12 | < 100 nM
* Cn1cc2cc(-c3ccc4nc(N5CC[C@H](NC6CCC6)C5)ccc4n3)c(O)c(F)c2n1 (single isomer, unassigned) | < 100 nM
* CNC(=O)c1nc(-c2cc3cn(C)nc3cc2O)nc2ccc(N3CCN[C@@H](C)C3)cc12 | < 100 nM
* Cn1cc2nc(-c3ccc4nc(C5CCNCC5)ccc4n3)c(F)cc2n1 | 1000 to 10000 nM
* Cn1cc2cc(-c3cc4ccc(C5CCNCC5)nc4cn3)c(O)cc2n1 | 1000 to 10000 nM
* Cn1cc2cc(-c3ccc4nc(N5CCC(NC6(CF)CC6)C5)ccc4n3)c(O)c(F)c2n1 (stereo in doubt) [Compound 353] | < 100 nM
* CNC(=O)c1nc(-c2cc3cn(C)nc3c(C)c2O)nc2ccc(N3CCC(N(C)C)CC3)cc12 | < 100 nM
* Cc1nc2c(C)c(O)c(-c3ccc4cc(N5CC[C@@H](NC(C)(C)C)C5)ncc4n3)cc2o1 (single isomer, unassigned) | 100 to 1000 nM
* Cc1nc2c(C)c(O)c(-c3ccc4nc(N5CC[C@H](NC6(C)CC6)C5)ccc4n3)cc2o1 (single isomer, unassigned) | 100 to 1000 nM
* Cc1nc2cc(O)c(-c3ccc4nc(N5CC[C@@H](NC(C)C)C5)ccc4n3)cc2o1 | < 100 nM
* Cc1cn2cc(-c3ccc4cc(N5C[C@@H](C)N[C@@H](C)C5)cc(F)c4n3)cc(F)c2n1 | 100 to 1000 nM
* Cc1nc2c(C)c(O)c(-c3ccc4nc(N5CC[C@H](N[C@H]6C[C@@H](F)C6)C5)ccc4n3)cc2o1 (stereo in doubt) | < 100 nM
* Cc1c(O)c(-c2ncc3nc(C4CCNC4)ccc3n2)cc2cn(C)nc12 (centres unmarked) | 100 to 1000 nM
* Cc1c(O)c(-c2nc(C(=O)NC3CCC3)c3cc(N4C[C@@H](C)N[C@@H](C)C4)ccc3n2)cc2cn(C)nc12 | < 100 nM
* Cc1nc2cc(O)c(-c3ccc4nc(N5CCC(NCC6CC6)C5)ccc4n3)cc2o1 (single isomer, unassigned) [Compound 291] | 100 to 1000 nM
* Cn1cc2cc(-c3ccc4nc(N5CC[C@H](N[C@H]6C[C@@H](F)C6)C5)ccc4n3)c(O)cc2n1 | < 100 nM
* Cc1nc2cc(O)c(-c3ccc4nc(N5CC[C@@H](NC6CC6)C5)ncc4n3)cc2o1 (single isomer, unassigned) | 100 to 1000 nM
* Cc1cc(N2C[C@@H](C)N[C@@H](C)C2)cc2c(Cl)cc(-c3cc4cn(C)nc4c(F)c3O)nc12 | < 100 nM
* Cn1cc2cc(-c3ccc4cc(N5CCC(NC(C)(C)C)C5)ncc4n3)c(O)cc2n1 (centres unmarked) | 100 to 1000 nM
* CNC(=O)c1nc(-c2cc3cn(C)nc3c(F)c2O)nc2ccc(N3CCNCC3)cc12 | < 100 nM
* Cn1cc2cc(-c3ccc4nc(N5CCC56CCNC6)ccc4n3)c(O)cc2n1 (centres unmarked) | > 10000 nM
* Cc1nc2c(C)c(O)c(-c3ccc4cc(N5CC[C@H](NC6CC6)C5)ncc4n3)cc2o1 | 100 to 1000 nM
* Cn1cc2cc(-c3ccc4nc(N5CCC(NC67CC(C6)C7)C5)ccc4n3)c(O)cc2n1 (centres unmarked) | 1000 to 10000 nM
* Cc1nc2cc(O)c(-c3ccc4nc(N5CCC(NC(C)(C)C)C5)ccc4n3)cc2s1 (centres unmarked) | > 10000 nM
* Cc1nc2cc(O)c(-c3ccc4nc(N5CCC(NC(C)(C)C)C5)ccc4n3)cc2o1 (centres unmarked) | < 100 nM
* COc1cc2nc(C)sc2cc1-c1ccc2nc(N3CCC(NC(C)(C)C)C3)ccc2n1 (centres unmarked) | 1000 to 10000 nM
* Cc1nc2cc(O)c(-c3ccc4nc(N5CC[C@@H](NC6(CF)CC6)C5)ccc4n3)cc2o1 (single isomer, unassigned) | < 100 nM
* Cc1nc2cc(O)c(-c3ccc4nc(N5CCC(NCC6CC6)C5)ccc4n3)cc2o1 (centres unmarked) [Compound 389] | < 100 nM
